Recorded IC50 for the following compounds
assayed_system: GRK2 (Homo sapiens)
Construct: purchased SignalChem A14-10G
protocol_text: GRK2 Inhibition Assay (TR-FRET, Example 7)
Assay type: biochemical
assay_context: Enzyme Assay B, TR-FRET (Example 7); read-out: B: Enzymatic GRK2: IC50 (nM) (Example 7)

Examples with their reported IC50 follow.
* Cc1ccc2c(c1)[C@@H](NC(=O)c1cccc(NCc3nnc(-c4ccncn4)n3C)c1)CCO2 | 210 nM
* CCOc1ccccc1CNC(=O)c1cccc(NCc2nnc(-c3ccncc3)n2CCO)c1 | 19 nM
* Cc1cccc(C(CO)NC(=O)c2cccc(NCc3nnc(-c4ccncn4)n3C)c2)c1 (centres unmarked) [drawing 589] | 8.6 nM
* Cn1c(CNc2cccc(C(=O)N[C@H]3CC(C)(C)Oc4ccccc43)c2)nnc1-c1ccncn1 | 30 nM
* COc1ncccc1CNC(=O)c1cccc(NCc2nnc(-c3ccncc3)[nH]2)c1 [drawing 424] | 5.8 nM
* O=C(NCc1cnc2ccccn12)c1cccc(NCc2nnc(-c3ccncn3)n2CCO)c1 | < 0.51 nM
* Cn1c(CNc2cccc(C(=O)N[C@H]3CCOc4ccccc43)c2)nnc1-c1ccncc1F | 59 nM
* COc1ncccc1CNC(=O)c1cccc(NCc2nnc3n2CCOc2cnccc2-3)c1 | 7.5 nM

Entry O=C(NCc1cccc2c1OCC2)c1cccc(NCc2nnc(-c3ccncn3)n2CCO)c1 has what IC50? 1.7 nM

Given the entry CCc1cnccc1CNC(=O)c1ccnc(NCc2nnc(-c3ccncn3)n2C)c1 , report its measured IC50. 15 nM

Look up IC50 for this compound: CCc1cnccc1CNC(=O)c1cccc(NCc2nnc(-c3ccncn3)n2CCCO)c1 5.5 nM

###

assayed_system: GRK2 (Homo sapiens)
Construct: purchased SignalChem A14-10G
Sequence (P25098 1-689): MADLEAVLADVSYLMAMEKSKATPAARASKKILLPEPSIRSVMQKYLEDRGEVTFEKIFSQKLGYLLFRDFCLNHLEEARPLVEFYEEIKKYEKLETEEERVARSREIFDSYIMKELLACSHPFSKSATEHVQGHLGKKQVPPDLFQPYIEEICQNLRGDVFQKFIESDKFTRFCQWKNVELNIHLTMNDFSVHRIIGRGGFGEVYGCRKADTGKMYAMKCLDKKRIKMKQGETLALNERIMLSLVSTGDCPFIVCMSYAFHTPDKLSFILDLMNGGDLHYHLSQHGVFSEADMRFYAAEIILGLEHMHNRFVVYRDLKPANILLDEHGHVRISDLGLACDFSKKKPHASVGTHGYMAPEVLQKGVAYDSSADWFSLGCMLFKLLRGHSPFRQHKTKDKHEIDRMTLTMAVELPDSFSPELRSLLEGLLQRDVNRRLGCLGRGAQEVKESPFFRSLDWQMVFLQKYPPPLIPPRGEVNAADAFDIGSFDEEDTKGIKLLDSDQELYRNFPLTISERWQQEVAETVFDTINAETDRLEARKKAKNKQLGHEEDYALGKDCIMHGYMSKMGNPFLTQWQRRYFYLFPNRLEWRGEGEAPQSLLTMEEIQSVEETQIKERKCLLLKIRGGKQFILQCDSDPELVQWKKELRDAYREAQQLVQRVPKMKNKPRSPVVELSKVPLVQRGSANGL
protocol_text: GRK2 Inhibition Assay (TR-FRET, Example 7)
Format: biochemical
assay_context: Enzyme Assay B, TR-FRET (Example 7); read-out: B: Enzymatic GRK2: IC50 (nM) (Example 7)
reported_endpoint: IC50 (nM)
Number in nM, nothing else.

Some compounds with recorded IC50:
• Cc1ccc2c(c1)[C@H](NC(=O)c1cccc(NCc3nnc(-c4ccncn4)n3C)c1)CC(C)(C)O2 = 48
• O=C(NCc1cccnc1C(F)(F)F)c1cccc(NCc2nnc(-c3ccncn3)n2CCCN2CCC[C@H]2CO)c1 = 1000
• Cc1cccc([C@@H](CO)NC(=O)c2cccc(NCc3nnc(-c4ccncn4)n3CCO)c2)c1 = 1.1

What value of IC50 has been reported for the following compound? O=C(NCc1c(F)cccc1F)c1cccc(NCc2nnc(-c3ccncn3)n2CCCO)c1 47
